EXPERIMENTAL SYSTEM: IL-17A(FLAG-tagged): IL-17RA(His-tagged) (Homo sapiens, UniProt Q16552, K93Q)
Sequence (Q16552 with tags, fused parts or gaps K93Q): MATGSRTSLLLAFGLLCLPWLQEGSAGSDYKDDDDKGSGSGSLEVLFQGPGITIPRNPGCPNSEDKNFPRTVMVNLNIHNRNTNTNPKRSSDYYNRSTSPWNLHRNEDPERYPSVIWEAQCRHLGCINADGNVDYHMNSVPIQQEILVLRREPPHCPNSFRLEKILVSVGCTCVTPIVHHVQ
EXPERIMENT: IL-17A(FLAG-tagged): IL-17RA(His-tagged) binding disruption Eu-HTRF assay
EXPERIMENTAL CONDITIONS: class of the average IC50 where tested more than once
Text: IL-17A(FLAG-tagged): IL-17RA(His-tagged) binding disruption Eu-HTRF assay An antibody directed against the FLAG tag of IL-17A (SEQ ID NO: 1) is labeled with the HTRF donor chromophore (Europium-cryptate). […] The fluorescence-resonance energy transfer (FRET) depends on the vicinity of the donor chromophore to the acceptor, and interruption of the binding between the IL-17A and IL-17RA causes the reduction/loss of FRET. […]
Listed next: entries and their corresponding IC50.
RECORDED ENDPOINT: IC50

COMPOUND	RECORDED ENDPOINT	EXPERIMENTAL RESULT
O=C(N[C@H](c1cn2ncc(C[C@H]3C[C@@H](C(F)(F)F)NC3=O)cc2n1)C1CCC(F)(F)CC1)c1nonc1C1CC1 [Example 59]	IC50	< 400 nM
O=C(N[C@H](c1cn2ncc(C[C@H]3C(=O)NC[C@@H]3C(F)(F)F)cc2n1)C1CCC(F)(F)CC1)c1nonc1C1CC1 (relative stereo)	IC50	400 to 4000 nM
O=C(N[C@H](c1cn2ncc(C[C@@H]3C[C@@H](C(F)(F)F)NC3=O)cc2n1)C1CCC(F)(F)CC1)c1nonc1C1CC1 [Example 60]	IC50	400 to 4000 nM

* * *

Tested on: IL-17A-induced G-CSF production in human normal keratinocyte (NHK)
EXPERIMENT: NHK assay: IL-17A-induced G-CSF production in normal human keratinocytes
Type: cell-based
EXPERIMENTAL CONDITIONS: Homo sapiens, Keratinocyte, 24 h, IL-17A 5 ng/mL, class of the average IC50 where tested more than once
pIC50: −log10 of the molar value.

COMPOUND	EXPERIMENTAL SYSTEM	pIC50
CC(C)(CC[C@H](NC(=O)c1nonc1C1CC1)c1cn2ncc([C@H](O)[C@H]3C[C@@H](C(F)(F)F)NC3=O)cc2n1)C(F)(F)F (relative stereo)	IL-17A-induced G-CSF production in human normal keratinocyte (NHK)	> 6.40
C[C@@H](c1cnn2cc([C@@H](NC(=O)c3nonc3C3CC3)C3CCC(F)(F)CC3)nc2c1)[C@H]1C[C@@H](C(F)(F)F)NC1=O (relative stereo)	IL-17A-induced G-CSF production in human normal keratinocyte (NHK)	< 5.40
O=C(N[C@H](c1cn2ncc([C@@H](O)[C@H]3C[C@@H](C(F)(F)F)NC3=O)cc2n1)C1CCC(F)(F)CC1)c1nonc1C1CC1 [Example 74]	IL-17A-induced G-CSF production in human normal keratinocyte (NHK)	> 6.40
C[C@]1(Cc2cnn3cc([C@@H](NC(=O)c4nonc4C4CC4)C4CCC(F)(F)CC4)nc3c2)C[C@@H](C(F)(F)F)NC1=O (single isomer, unassigned)	IL-17A-induced G-CSF production in human normal keratinocyte (NHK)	> 6.40
C[C@@H](c1cnn2cc([C@@H](NC(=O)c3nonc3C3CC3)C3CCC(F)(F)CC3)nc2c1)[C@@H]1C[C@@H](C(F)(F)F)NC1=O (single isomer, unassigned)	IL-17A-induced G-CSF production in human normal keratinocyte (NHK)	5.40 to 6.40
O=C(N[C@H](c1cn2ncc([C@@H]3C[C@@]34C[C@@H](C(F)(F)F)NC4=O)cc2n1)C1CCC(F)(F)CC1)c1nonc1C1CC1 (relative stereo)	IL-17A-induced G-CSF production in human normal keratinocyte (NHK)	5.40 to 6.40
Cc1nonc1C(=O)N[C@H](c1cn2ncc(C[C@H]3CC[C@@H](C(F)(F)F)NC3=O)cc2n1)C1CCC(F)(F)CC1 (relative stereo)	IL-17A-induced G-CSF production in human normal keratinocyte (NHK)	5.40 to 6.40
O=C(N[C@H](c1cn2ncc([C@H](O)[C@@H]3C[C@H](C(F)(F)F)NC3=O)cc2n1)C1CCC(F)(F)CC1)c1nonc1C1CC1 (relative stereo)	IL-17A-induced G-CSF production in human normal keratinocyte (NHK)	> 6.40
O=C(N[C@H](c1cn2ncc(C[C@@H]3C(=O)NC[C@@H]3C(F)(F)F)cc2n1)C1CCC(F)(F)CC1)c1nonc1C1CC1 (relative stereo)	IL-17A-induced G-CSF production in human normal keratinocyte (NHK)	< 5.40
O=C(N[C@H](c1cn2ncc(C[C@@H]3C[C@@H](C(F)(F)F)NC3=O)cc2n1)C1CCC(F)(F)CC1)c1nonc1C1CC1 [Example 60]	IL-17A-induced G-CSF production in human normal keratinocyte (NHK)	< 5.40
O=C(N[C@H](c1cn2ncc(C[C@H]3CC[C@H](C(F)(F)F)NC3=O)cc2n1)C1CCC(F)(F)CC1)c1nonc1C1CC1 (relative stereo)	IL-17A-induced G-CSF production in human normal keratinocyte (NHK)	5.40 to 6.40
